Reference for the values: ChEMBL document CHEMBL5338785

Test: Selectivity index, ratio of HC50 for hemolytic activity in mammalian RBC to MIC for antibacterial activity against methicillin-resistant Staphylococcus aureus assessed as bacterial growth inhibition
Type: toxicity
Conditions: mammalian red blood cells

- smiles-text: "CCCCCCCC[N+](C)(C)CCCCOc1ccc(OCCCC[N+](C)(C)CCCCCCCC)cc1.[Br-].[Br-]"
  selectivity ratio: 4840

----------
Test: Hemolytic activity in mammalian RBC assessed as hemolysis at 320 ug/ml incubated for 1 hr by microplate reader analysis
Assay type: toxicity, cell-based, Erythrocyte
Details: mammalia, mammalian red blood cells, at 320 µg/mL, read-out: Activity

- smiles-text: "CCCCCCN(CCCOc1ccccc1-c1ccccc1OCCCN(CCCCCC)C(=O)[C@@H](N)CCCCN)C(=O)[C@@H](N)CCCCN.Cl.Cl.Cl.Cl"
  hemolysis at 1 h, 320 ug/ml: "< 1%"

----------
Test: Hemolytic activity in sheep RBC assessed as hemolysis incubated for 1 hr by microplate reader method
Type: toxicity, cell-based, Ovis aries, Erythrocyte
Conditions: sheep red blood cells
The reader will find reported HC50 at 1 h values listed item by item below.

- smiles-text: "CCCCCCCN(CCOc1ccc(OCCN(CCCCCCC)C(=O)[C@@H](N)Cc2ccccc2)cc1)C(=O)[C@@H](N)Cc1ccccc1.Cl.Cl"
  inequality-sign: "="
  HC50 at 1 h [µg/mL]: 145
- smiles-text: "CN[C@H](CC(C)C)C(=O)N[C@H]1C(=O)N[C@@H](CC(N)=O)C(=O)N[C@H]2C(=O)N[C@H]3C(=O)N[C@H](C(=O)N[C@H](C(=O)O)c4cc(O)cc(O)c4-c4cc3ccc4O)[C@H](O)c3ccc(c(Cl)c3)Oc3cc2cc(c3O[C@@H]2O[C@H](CO)[C@@H](O)[C@H](O)[C@H]2O[C@H]2C[C@](C)(N)[C@H](O)[C@H](C)O2)Oc2ccc(cc2Cl)[C@H]1O"
  inequality-sign: ">"
  HC50 at 1 h [µg/mL]: 1000
- smiles-text: "CCCCCCCN(CCOc1ccc(OCCN(CCCCCCC)C(=O)[C@@H](N)CC(C)C)cc1)C(=O)[C@@H](N)CC(C)C.Cl.Cl"
  inequality-sign: "="
  HC50 at 1 h [µg/mL]: 36
- smiles-text: "CCCCCCCCCCN(CCCOc1ccccc1-c1ccccc1OCCCN(CCCCCCCCCC)C(=O)[C@@H](N)CCCCN)C(=O)[C@@H](N)CCCCN.Cl.Cl.Cl.Cl"
  inequality-sign: "="
  HC50 at 1 h [µg/mL]: 40
- smiles-text: "CCCCCCN(CCCOc1cccc(OCCCN(CCCCCC)C(=O)[C@@H](N)CCCCN)c1)C(=O)[C@@H](N)CCCCN.Cl.Cl.Cl.Cl"
  inequality-sign: ">"
  HC50 at 1 h [µg/mL]: 1000

----------
The reader will find reported CC50 at 72 h values listed item by item below.
Assay: Cytotoxicity against HUVEC cells assessed as reduction in cell viability incubated for 72 hrs by CCK8 assay
Type: toxicity, cell-based
Details: human
outcome-measure: CC50 at 72 h

- smiles-text: "CCCCCCN(Cc1ccc(-c2ccc(CN(CCCCCC)C(=O)[C@@H](N)CCCCN)cc2)cc1)C(=O)[C@@H](N)CCCCN.O=C(O)C(F)(F)F.O=C(O)C(F)(F)F.O=C(O)C(F)(F)F.O=C(O)C(F)(F)F"
  obs-value: "14.2 µg/mL"
- smiles-text: "C=C[C@]1(C)C[C@@H](OC(=O)CS[C@@H]2C[C@H]3CC[C@@H](C2)N3C)[C@]2(C)[C@H](C)CC[C@]3(CCC(=O)[C@H]32)[C@@H](C)[C@@H]1O"
  obs-value: "25.5 µg/mL"
- smiles-text: "CCCCCCN(CCCOc1ccccc1-c1ccccc1OCCCN(CCCCCC)C(=O)[C@@H](N)CCCCN)C(=O)[C@@H](N)CCCCN.Cl.Cl.Cl.Cl"
  obs-value: "24.2 µg/mL"

----------
Experiment: Metabolic stability in SPF Kunming mouse assessed as half life at 5 mg/kg/day, iv
Type: ADME, organism-based
Conditions: in vivo

- smiles-text: "CCCCCCN(CCCOc1ccccc1-c1ccccc1OCCCN(CCCCCC)C(=O)[C@@H](N)CCCCN)C(=O)[C@@H](N)CCCCN.Cl.Cl.Cl.Cl"
  units-of-measure: "h"
  half-life: 4.21

----------
Experiment: Selectivity index, ratio of HC50 for hemolytic activity in sheep RBC to IC50 for antibacterial activity against Escherichia coli assessed as bacterial growth inhibition
Type: toxicity
Conditions: sheep red blood cells

- smiles-text: "CCCCCCN(CCCOc1ccccc1-c1ccccc1OCCCN(CCCCCC)C(=O)[C@@H](N)CCCCN)C(=O)[C@@H](N)CCCCN.Cl.Cl.Cl.Cl"
  selectivity ratio: "> 500"

----------
The reader will find reported selectivity ratio values listed item by item below.
Assay: Selectivity index, ratio of HC50 for hemolytic activity in sheep RBC to MIC for antibacterial activity against methicillin-resistant Staphylococcus aureus assessed as bacterial growth inhibition
Assay type: toxicity
Settings: sheep red blood cells
outcome-measure: selectivity ratio

- smiles-text: "CCCCCCCCCCN(CCCOc1ccccc1-c1ccccc1OCCCN(CCCCCCCCCC)C(=O)[C@@H](N)CCCCN)C(=O)[C@@H](N)CCCCN.Cl.Cl.Cl.Cl"
  outcome-measure: "selectivity ratio"
  obs-value: 5
- smiles-text: "CCCCCCCCCN(CCCOc1ccccc1)C(=O)[C@@H](N)CCCCN.Cl.Cl"
  outcome-measure: "selectivity ratio"
  obs-value: 45.5
- smiles-text: "CCCCCCCCCN(CCCCOc1ccc(OCCCCN(CCCCCCCCC)C(=O)[C@@H](N)CCCCN)cc1)C(=O)[C@@H](N)CCCCN.Cl.Cl.Cl.Cl"
  outcome-measure: "selectivity ratio"
  obs-value: 6
- smiles-text: "CCCCCCCN(CCCOc1cccc(OCCCN(CCCCCCC)C(=O)[C@@H](N)CCCCN)c1)C(=O)[C@@H](N)CCCCN.Cl.Cl.Cl.Cl"
  outcome-measure: "selectivity ratio"
  obs-value: 814

----------
Experiment: Selectivity index, ratio of HC50 for hemolytic activity in sheep RBC to IC50 for antibacterial activity against Salmonella enterica assessed as bacterial growth inhibition
Conditions: sheep red blood cells
outcome-measure: selectivity ratio

- smiles-text: "CCCCCCN(CCCOc1ccccc1-c1ccccc1OCCCN(CCCCCC)C(=O)[C@@H](N)CCCCN)C(=O)[C@@H](N)CCCCN.Cl.Cl.Cl.Cl"
  obs-value: "> 500"

----------
Assay: Selectivity index, ratio of HC50 for hemolytic activity in sheep RBC to MIC for antibacterial activity against methicillin-resistant Staphylococcus aureus assessed as bacterial growth inhibition
Type: toxicity
Conditions: sheep red blood cells
Label scheme for selectivity ratio: lower than 70 is -1, 70 and above is 1.

- compound: "CCCCCCCCCN(CCCOc1ccc(OCCCN(CCCCCCCCC)C(=O)[C@@H](N)CCCCN)cc1)C(=O)[C@@H](N)CCCCN.Cl.Cl.Cl.Cl"
  class-assignment: -1
- compound: "CCCCCCCCN(CCCOc1ccc(-c2ccc(OCCCN(CCCCCCCC)C(=O)[C@@H](N)CCCCN)cc2)cc1)C(=O)[C@@H](N)CCCCN.Cl.Cl.Cl.Cl"
  class-assignment: -1
- compound: "CCCCCCCCN(CCCOc1ccccc1)C(=O)[C@@H](N)CCCCN.Cl.Cl"
  class-assignment: -1
- compound: "CCCCCCN(CCCOc1ccccc1-c1ccccc1OCCCN(CCCCCC)C(=O)[C@@H](N)CCCCN)C(=O)[C@@H](N)CCCCN.Cl.Cl.Cl.Cl"
  class-assignment: 1
- compound: "CCCCCCCCN(CCCOc1ccc2c(OCCCN(CCCCCCCC)C(=O)[C@@H](N)CCCCN)cccc2c1)C(=O)[C@@H](N)CCCN.Cl.Cl.Cl.Cl"
  class-assignment: -1
- compound: "CCCCCCCCCCN(CCOc1ccc(OCCN(CCCCCCCCCC)C(=O)[C@@H](N)CCCCN)cc1)C(=O)[C@@H](N)CCCCN.Cl.Cl.Cl.Cl"
  class-assignment: -1
- compound: "CCCCCCCCN(CCCOc1ccc(OCCCN(CCCCCCCC)C(=O)[C@@H](N)CCCCN)cc1)C(=O)[C@@H](N)CCCCN.Cl.Cl.Cl.Cl"
  class-assignment: -1
- compound: "CCCCCCCN(CCCOc1ccccc1)C(=O)[C@@H](N)CCCCN.Cl.Cl"
  class-assignment: -1
- compound: "CCCCCCN(CCCOc1cccc(-c2cccc(OCCCN(CCCCCC)C(=O)[C@@H](N)CCCCN)c2)c1)C(=O)[C@@H](N)CCCCN.Cl.Cl.Cl.Cl"
  class-assignment: 1
- compound: "CCCCN(CCCOc1ccccc1-c1ccccc1OCCCN(CCCC)C(=O)[C@@H](N)CCCCN)C(=O)[C@@H](N)CCCCN.Cl.Cl.Cl.Cl"
  class-assignment: 1
- compound: "CCCCCCN(Cc1ccc(-c2ccc(CN(CCCCCC)C(=O)[C@@H](N)CCCCN)cc2)cc1)C(=O)[C@@H](N)CCCCN.O=C(O)C(F)(F)F.O=C(O)C(F)(F)F.O=C(O)C(F)(F)F.O=C(O)C(F)(F)F"
  class-assignment: 1
- compound: "CCCCCCCN(CCOc1ccc(OCCN(CCCCCCC)C(=O)[C@@H](N)CC(C)C)cc1)C(=O)[C@@H](N)CC(C)C.Cl.Cl"
  class-assignment: 1
- compound: "CCCCCCCCN(CCCOc1ccccc1-c1ccccc1OCCCN(CCCCCCCC)C(=O)[C@@H](N)CCCCN)C(=O)[C@@H](N)CCCCN.Cl.Cl.Cl.Cl"
  class-assignment: -1
- compound: "CCCCCCCN(CCOc1ccc(OCCN(CCCCCCC)C(=O)[C@@H](N)CCCCN)cc1)C(=O)[C@@H](N)CCCCN.Cl.Cl.Cl.Cl"
  class-assignment: 1
- compound: "CCCCCCCN(CCOc1ccc(OCCN(CCCCCCC)C(=O)[C@H](C)N)cc1)C(=O)[C@H](C)N.Cl.Cl"
  class-assignment: 1
- compound: "CCCCCCCN(CCOc1ccc(OCCN(CCCCCCC)C(=O)[C@@H](N)[C@@H](C)CC)cc1)C(=O)[C@@H](N)[C@@H](C)CC.Cl.Cl"
  class-assignment: 1
- compound: "CCCCCCN(CCCOc1ccccc1OCCCN(CCCCCC)C(=O)[C@@H](N)CCCCN)C(=O)[C@@H](N)CCCCN.Cl.Cl.Cl.Cl"
  class-assignment: 1
- compound: "CCCCCCN(CCCOc1ccc2ccccc2c1-c1c(OCCCN(CCCCCC)C(=O)[C@@H](N)CCCCN)ccc2ccccc12)C(=O)[C@@H](N)CCCCN.Cl.Cl.Cl.Cl (stereo in doubt; 8m)"
  class-assignment: -1
- compound: "CCCCCCN(CCCOc1ccc(-c2ccc(OCCCN(CCCCCC)C(=O)[C@@H](N)CCCCN)cc2)cc1)C(=O)[C@@H](N)CCCCN.Cl.Cl.Cl.Cl"
  class-assignment: 1
- compound: "CCCCCCCN(CCCOc1ccccc1OCCCN(CCCCCCC)C(=O)[C@@H](N)CCCCN)C(=O)[C@@H](N)CCCCN.Cl.Cl.Cl.Cl"
  class-assignment: 1
- compound: "CCCCCCN(CCCOc1cccc(OCCCN(CCCCCC)C(=O)[C@@H](N)CCCCN)c1)C(=O)[C@@H](N)CCCCN.Cl.Cl.Cl.Cl"
  class-assignment: 1
- compound: "CCCCCCCCCN(CCOc1ccc(OCCN(CCCCCCCCC)C(=O)[C@@H](N)CCCCN)cc1)C(=O)[C@@H](N)CCCCN.Cl.Cl.Cl.Cl"
  class-assignment: -1
- compound: "CCCCCCN(CCCOc1ccc(OCCCN(CCCCCC)C(=O)[C@@H](N)CCCCN)cc1)C(=O)[C@@H](N)CCCCN.Cl.Cl.Cl.Cl"
  class-assignment: 1
- compound: "CCCCCCCN(CCCCOc1ccc(OCCCCN(CCCCCCC)C(=O)[C@@H](N)CCCCN)cc1)C(=O)[C@@H](N)CCCCN.Cl.Cl.Cl.Cl"
  class-assignment: 1
- compound: "CCCCCCN(CCCOc1ccc2c(OCCCN(CCCCCC)C(=O)[C@@H](N)CCCCN)cccc2c1)C(=O)[C@@H](N)CCCN.Cl.Cl.Cl.Cl"
  class-assignment: 1
- compound: "CCCCCCCCN(CCCOc1ccc2ccccc2c1-c1c(OCCCN(CCCCCCCC)C(=O)[C@@H](N)CCCCN)ccc2ccccc12)C(=O)[C@@H](N)CCCCN.Cl.Cl.Cl.Cl (stereo in doubt; 8o)"
  class-assignment: -1
- compound: "CCCCCCCCN(CCCOc1cccc(-c2cccc(OCCCN(CCCCCCCC)C(=O)[C@@H](N)CCCCN)c2)c1)C(=O)[C@@H](N)CCCCN.Cl.Cl.Cl.Cl"
  class-assignment: -1
